test-details: High-throughput drug toxicity screening in the BPDCN cell line Gen2.2 (AID 1224824);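 further: cells exposed to compounds for 48 h before reading; 100% = DMSO and 0% = bortezomib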
settings: Gen2.2 BPDCN cells; at 45.8 µM (top of the series) unless noted
measured-property: cell viability, % of control (lower = more cytotoxic) (%)
Field: numeric (%). Do not append units.

[[record]]
compound_smiles = "Nc1[nH]nc2nnc(-c3c(-c4ccccc4)nn4ccccc34)cc12"
reading = 5.31

[[record]]
compound_smiles = "Cc1ccc(NC(=O)Nc2cc(C(F)(F)F)ccc2F)cc1Nc1ccc2c(c1)NC(=O)C2=Cc1ccc[nH]1"
reading = 4.16

[[record]]
compound_smiles = "NC1(C(=O)N[C@@H](CCO)c2ccc(Cl)cc2)CCN(c2ncnc3[nH]ccc23)CC1"
reading = 6.91

[[record]]
compound_smiles = "CCN1CCN(c2ccc(Nc3cc(N(C)C(=O)Nc4c(Cl)c(OC)cc(OC)c4Cl)ncn3)cc2)CC1"
reading = 147

[[record]]
compound_smiles = "Cc1ccc(NC(=O)c2ccc(CN3CCN(C)CC3)cc2)cc1Nc1nc(-c2cccnc2)cs1"
reading = 14.8


I have this compound here, CNC(=O)[C@H](Cc1ccccc1)NC(=O)[C@H](CC(C)C)[C@H](CSc1cccs1)C(=O)NO , and I need its recorded cell viability, % of control (lower = more cytotoxic).
63.4

What measured cell viability, % of control (lower = more cytotoxic) goes with O=C(Nc1cccc(C(F)(F)F)c1)Nc1cc(S(=O)(=O)NC2CC2)ccc1-c1ccsc1 ?
316
